# assayProtocol: Metabolic stability in rat liver microsomes assessed as compound remaining after 30 mins
# Assay type: ADME
# conditionParameters: read-out: Stability
Listed molecules paired with reported remaining at 0.5 h
measurementKind: remaining at 0.5 h (%)

[
  {
    "molSmiles": "COC(=O)N[C@H](C(=O)N1CCC[C@H]1C(=O)Nc1ccc([C@H]2CC[C@H](c3ccc(NC(=O)[C@@H]4CCCN4C(=O)[C@@H](NC(=O)OC)C(C)(C)C)cc3)N2c2ccc(F)cc2)cc1)C(C)(C)C",
    "measurementKind": "remaining at 0.5 h",
    "unitDescriptor": "%",
    "obsValue": 69
  },
  {
    "molSmiles": "COC(=O)N[C@H](C(=O)N1CCC[C@H]1C(=O)Nc1ccc([C@@H]2CC[C@@H](c3ccc(NC(=O)[C@@H]4CCCN4C(=O)[C@@H](NC(=O)OC)[C@H]4CCOC4)cc3)N2c2ccc(F)cc2)cc1)[C@H]1CCOC1",
    "measurementKind": "remaining at 0.5 h",
    "unitDescriptor": "%",
    "obsValue": 42
  },
  {
    "molSmiles": "COC(=O)N[C@H](C(=O)N1CCC[C@H]1C(=O)Nc1ccc([C@H]2CC[C@H](c3ccc(NC(=O)[C@@H]4CCCN4C(=O)[C@@H](NC(=O)OC)C(C)C)cc3)N2c2ccc(C(F)(F)F)cc2)cc1)C(C)C",
    "measurementKind": "remaining at 0.5 h",
    "unitDescriptor": "%",
    "obsValue": 58
  },
  {
    "molSmiles": "COC(=O)N[C@H](C(=O)N1CCC[C@H]1C(=O)Nc1ccc([C@@H]2CC[C@@H](c3ccc(NC(=O)[C@@H]4CCCN4C(=O)[C@@H](NC(=O)OC)[C@@H](C)OC)cc3)N2c2ccc(F)cc2)cc1)[C@@H](C)OC",
    "measurementKind": "remaining at 0.5 h",
    "unitDescriptor": "%",
    "obsValue": 47
  }
]

###

Reported Vd values follow for various compounds
# assayProtocol: Volume of distribution at steady state in monkey at 1 mg/kg, iv
# Format: ADME, organism-based, Macaca mulatta
# Set-up: dose 1 mg/kg, route intravenous
# conditionParameters: rhesus monkey, in vivo, read-out: Vdss

[
  {
    "compound": "COC(=O)N[C@H](C(=O)N1CCC[C@H]1C(=O)Nc1ccc([C@@H]2CC[C@@H](c3ccc(NC(=O)[C@@H]4CCCN4C(=O)[C@@H](NC(=O)OC)C(C)C)cc3)N2c2ccc(C(C)(C)C)cc2)cc1)C(C)C [OMBITASVIR]",
    "Vd [L/kg]": 1.5
  },
  {
    "compound": "COC(=O)N[C@H](C(=O)N1CCC[C@H]1C(=O)Nc1ccc([C@H]2CC[C@H](c3ccc(NC(=O)[C@@H]4CCCN4C(=O)[C@@H](NC(=O)OC)C(C)C)cc3)N2c2ccc(F)cc2)cc1)C(C)C",
    "Vd [L/kg]": 1.5
  },
  {
    "compound": "COC(=O)N[C@H](C(=O)N1CCC[C@H]1C(=O)Nc1ccc([C@H]2CC[C@H](c3ccc(NC(=O)[C@@H]4CCCN4C(=O)[C@@H](NC(=O)OC)C(C)(C)C)cc3)N2c2ccc(F)cc2)cc1)C(C)(C)C",
    "Vd [L/kg]": 4.1
  }
]

###

# assayProtocol: Metabolic stability in human liver microsomes assessed as compound remaining after 30 mins
# Type: ADME
# conditionParameters: read-out: Stability
measurementKind: remaining at 0.5 h (%)

[
  {
    "molSmiles": "COC(=O)N[C@H](C(=O)N1CCC[C@H]1C(=O)Nc1ccc([C@H]2CC[C@H](c3ccc(NC(=O)[C@@H]4CCCN4C(=O)[C@@H](NC(=O)OC)[C@@H](C)OC)cc3)N2c2ccc(F)cc2)cc1)[C@@H](C)OC",
    "measurementKind": "remaining at 0.5 h",
    "obsValue": 48
  },
  {
    "molSmiles": "COC(=O)N[C@H](C(=O)N1CCC[C@H]1C(=O)Nc1ccc([C@@H]2CC[C@@H](c3ccc(NC(=O)[C@@H]4CCCN4C(=O)[C@@H](NC(=O)OC)[C@@H](C)OC)cc3)N2c2ccc(F)cc2)cc1)[C@@H](C)OC",
    "measurementKind": "remaining at 0.5 h",
    "obsValue": 54
  },
  {
    "molSmiles": "COC(=O)N[C@H](C(=O)N1CCC[C@H]1C(=O)Nc1ccc([C@H]2CC[C@H](c3ccc(NC(=O)[C@@H]4CCCN4C(=O)[C@@H](NC(=O)OC)C(C)(C)C)cc3)N2c2ccc(C(C)(C)C)cc2)cc1)C(C)(C)C",
    "measurementKind": "remaining at 0.5 h",
    "obsValue": 80
  },
  {
    "molSmiles": "COC(=O)N[C@H](C(=O)N1CCC[C@H]1C(=O)Nc1ccc([C@@H]2CC[C@@H](c3ccc(NC(=O)[C@@H]4CCCN4C(=O)[C@@H](NC(=O)OC)C(C)(C)C)cc3)N2c2ccc(C(C)(C)C)cc2)cc1)C(C)(C)C",
    "measurementKind": "remaining at 0.5 h",
    "obsValue": 78
  },
  {
    "molSmiles": "COC(=O)N[C@H](C(=O)N1CCC[C@H]1C(=O)Nc1ccc([C@H]2CC[C@H](c3ccc(NC(=O)[C@@H]4CCCN4C(=O)[C@@H](NC(=O)OC)C(C)C)cc3)N2c2ccc(C(F)(F)F)cc2)cc1)C(C)C",
    "measurementKind": "remaining at 0.5 h",
    "obsValue": 58
  },
  {
    "molSmiles": "COC(=O)N[C@H](C(=O)N1CCC[C@H]1C(=O)Nc1ccc([C@H]2CC[C@H](c3ccc(NC(=O)[C@@H]4CCCN4C(=O)[C@@H](NC(=O)OC)[C@H]4CCOC4)cc3)N2c2ccc(F)cc2)cc1)[C@H]1CCOC1",
    "measurementKind": "remaining at 0.5 h",
    "obsValue": 47
  },
  {
    "molSmiles": "COC(=O)N[C@H](C(=O)N1CCC[C@H]1C(=O)Nc1ccc([C@@H]2CC[C@@H](c3ccc(NC(=O)[C@@H]4CCCN4C(=O)[C@@H](NC(=O)OC)C(C)C)cc3)N2c2ccc(C(F)(F)F)cc2)cc1)C(C)C",
    "measurementKind": "remaining at 0.5 h",
    "obsValue": 52
  },
  {
    "molSmiles": "COC(=O)N[C@H](C(=O)N1CCC[C@H]1C(=O)Nc1ccc([C@@H]2CC[C@@H](c3ccc(NC(=O)[C@@H]4CCCN4C(=O)[C@@H](NC(=O)OC)C(C)C)cc3)N2c2ccc(C(C)(C)C)cc2)cc1)C(C)C",
    "measurementKind": "remaining at 0.5 h",
    "obsValue": 60
  }
]

###

# assayProtocol: Tmax in monkey at 2.5 mg/kg, po
# Type: ADME, organism-based, Macaca mulatta
# Set-up: dose 2.5 mg/kg, route oral
# conditionParameters: rhesus monkey, in vivo

[
  {
    "molSmiles": "COC(=O)N[C@H](C(=O)N1CCC[C@H]1C(=O)Nc1ccc([C@H]2CC[C@H](c3ccc(NC(=O)[C@@H]4CCCN4C(=O)[C@@H](NC(=O)OC)C(C)C)cc3)N2c2ccc(F)cc2)cc1)C(C)C",
    "Tmax, h": 1.5
  },
  {
    "molSmiles": "COC(=O)N[C@H](C(=O)N1CCC[C@H]1C(=O)Nc1ccc([C@@H]2CC[C@@H](c3ccc(NC(=O)[C@@H]4CCCN4C(=O)[C@@H](NC(=O)OC)C(C)C)cc3)N2c2ccc(C(C)(C)C)cc2)cc1)C(C)C",
    "Tmax, h": 3.3
  },
  {
    "molSmiles": "COC(=O)N[C@H](C(=O)N1CCC[C@H]1C(=O)Nc1ccc([C@H]2CC[C@H](c3ccc(NC(=O)[C@@H]4CCCN4C(=O)[C@@H](NC(=O)OC)C(C)(C)C)cc3)N2c2ccc(F)cc2)cc1)C(C)(C)C",
    "Tmax, h": 1.7
  }
]

###

# assayProtocol: Cmax in HCV1 infected patient at 5 to 200 mg qd for 3 days
# Assay type: ADME, organism-based
# conditionParameters: human, in vivo
measurementKind: Cmax (ng/mL)

[
  {
    "molSmiles": "COC(=O)N[C@H](C(=O)N1CCC[C@H]1C(=O)Nc1ccc([C@@H]2CC[C@@H](c3ccc(NC(=O)[C@@H]4CCCN4C(=O)[C@@H](NC(=O)OC)C(C)C)cc3)N2c2ccc(C(C)(C)C)cc2)cc1)C(C)C",
    "obsValue": 5.7
  }
]

###

# assayProtocol: Clearance in monkey at 1 mg/kg, iv
# Assay type: ADME, organism-based, Macaca mulatta
# Design: dose 1 mg/kg, route intravenous
# conditionParameters: rhesus monkey, in vivo

[
  {
    "molSmiles": "COC(=O)N[C@H](C(=O)N1CCC[C@H]1C(=O)Nc1ccc([C@H]2CC[C@H](c3ccc(NC(=O)[C@@H]4CCCN4C(=O)[C@@H](NC(=O)OC)C(C)C)cc3)N2c2ccc(F)cc2)cc1)C(C)C",
    "clearance, mL/min/kg": 51.7
  },
  {
    "molSmiles": "COC(=O)N[C@H](C(=O)N1CCC[C@H]1C(=O)Nc1ccc([C@H]2CC[C@H](c3ccc(NC(=O)[C@@H]4CCCN4C(=O)[C@@H](NC(=O)OC)C(C)(C)C)cc3)N2c2ccc(F)cc2)cc1)C(C)(C)C",
    "clearance, mL/min/kg": 15.5
  },
  {
    "molSmiles": "COC(=O)N[C@H](C(=O)N1CCC[C@H]1C(=O)Nc1ccc([C@@H]2CC[C@@H](c3ccc(NC(=O)[C@@H]4CCCN4C(=O)[C@@H](NC(=O)OC)C(C)C)cc3)N2c2ccc(C(C)(C)C)cc2)cc1)C(C)C",
    "clearance, mL/min/kg": 6.33
  }
]

// data source = ChEMBL document CHEMBL3124779
